- measurement-protocol: Approximate solubility in various solvents at room temperature
- Type: physicochemical
- conditions: IPA, organic solvent or mixture, thermodynamic from solid
quantity: solubility at 1 day

(Q) For the compound shown here, C[C@]1(C(N)=O)CC[C@@H](n2c(Nc3c(Cl)cc(Cl)cc3Cl)nc3cnc(N[C@@H]4CCOC[C@H]4F)nc32)CC1 [Form A] , give the reported solubility at 1 day.
(A) > 10 mg/mL

---

- measurement-protocol: Approximate solubility in various solvents at room temperature
- Format: physicochemical
- conditions: MTBE, organic solvent or mixture, thermodynamic from solid
quantity: solubility at 1 day

(Q) For the molecule shown here, C[C@]1(C(N)=O)CC[C@@H](n2c(Nc3c(Cl)cc(Cl)cc3Cl)nc3cnc(N[C@@H]4CCOC[C@H]4F)nc32)CC1 [Form A] , give the reported solubility at 1 day.
(A) > 20 mg/mL

Entry source: patent US10513519B2
